Origin of the recorded values: patent US7205332B2

Measured IC50, listed per entry for reference.
# Tested on: MCF7: human breast carcinoma cell
# assay_text: micro-culture tetrazolium assay, in vitro cytotoxicity on MCF7
# Type: cell-based
# experimental_setup: MCF7 human breast carcinoma cell; read-out: In vitro cytotoxicities (IC50) MCF7
reported_metric: IC50 (µg/mL)

{"columns": ["compound", "quantitative_readout"],
 "data": [
  ["C[C@H]1[C@@H](CCNC(=O)CC[C@H](N)C(=O)NCC[C@H]2O[C@@H]3O[C@@]4(C)CC[C@H]5[C@H](C)CC[C@@H]([C@H]2C)[C@@]35OO4)O[C@@H]2O[C@@]3(C)CC[C@H]4[C@H](C)CC[C@@H]1[C@@]24OO3", 15.3],
  ["COc1cccc2c1C(=O)c1c(O)c3c(c(O)c1C2=O)C[C@@](O)(C(=O)CO)C[C@@H]3O[C@H]1C[C@H](N)[C@H](O)[C@H](C)O1 [Adriamycin, reference compound]", 0.12],
  ["C[C@H]1[C@@H](CCSCC[C@H]2O[C@@H]3O[C@@]4(C)CC[C@H]5[C@H](C)CC[C@@H]([C@H]2C)[C@@]35OO4)O[C@@H]2O[C@@]3(C)CC[C@H]4[C@H](C)CC[C@@H]1[C@@]24OO3", 0.017],
  ["C[C@H]1[C@@H](CCNC(=O)CC[C@H](NC(=O)CC[C@H]2O[C@@H]3O[C@]4(C)CC[C@H]5[C@H](C)CC[C@@H]([C@H]2C)[C@@]35OO4)C(=O)NCC[C@H]2O[C@@H]3O[C@]4(C)CC[C@H]5[C@H](C)CC[C@@H]([C@H]2C)[C@@]35OO4)O[C@@H]2O[C@]3(C)CC[C@H]4[C@H](C)CC[C@@H]1[C@@]24OO3", 0.017],
  ["C[C@H]1[C@@H](CCNC(=O)CC[C@H]2O[C@@H]3O[C@@]4(C)CC[C@H]5[C@H](C)CC[C@@H]([C@H]2C)[C@@]35OO4)O[C@@H]2O[C@@]3(C)CC[C@H]4[C@H](C)CC[C@@H]1[C@@]24OO3", 0.005]
]}

====

# Test system: P388: mouse fibroblast leukemia cell
# assay_text: micro-culture tetrazolium assay, in vitro cytotoxicity on P388
# Type: cell-based
# experimental_setup: P388 mouse fibroblast leukemia cell; read-out: In vitro cytotoxicities (IC50) P388
reported_metric: IC50 (µg/mL)

{"columns": ["compound", "study_target", "quantitative_readout"],
 "data": [
  ["CC(=O)O[C@H]1C(=O)[C@@]2(C)[C@H]([C@H](OC(=O)c3ccccc3)[C@]3(O)C[C@H](OC(=O)[C@H](O)[C@@H](NC(=O)c4ccccc4)c4ccccc4)C(C)=C1C3(C)C)[C@]1(OC(C)=O)CO[C@@H]1C[C@@H]2O [Taxol, reference compound]", "P388: mouse fibroblast leukemia cell", 2.27],
  ["C[C@H]1[C@@H](CCNC(=O)CC[C@H](N)C(=O)NCC[C@H]2O[C@@H]3O[C@@]4(C)CC[C@H]5[C@H](C)CC[C@@H]([C@H]2C)[C@@]35OO4)O[C@@H]2O[C@@]3(C)CC[C@H]4[C@H](C)CC[C@@H]1[C@@]24OO3 [Compound (IVd)]", "P388: mouse fibroblast leukemia cell", 15.6],
  ["COc1cccc2c1C(=O)c1c(O)c3c(c(O)c1C2=O)C[C@@](O)(C(=O)CO)C[C@@H]3O[C@H]1C[C@H](N)[C@H](O)[C@H](C)O1 [Adriamycin, reference compound]", "P388: mouse fibroblast leukemia cell", 0.39]
]}
